Dear all, this message contains IC50 results, target or system Voltage-gated inwardly rectifying potassium channel KCNH2 (Homo sapiens).
READOUT KIND: IC50 (µM)

>>> readout_number("Cc1c([C@@H](O)CN2CCC3(CC2)CCN(c2cnc(S(C)(=O)=O)cn2)C3)ccc2c1COC2=O")
8.9
>>> readout_number("Cc1nc(N2CCC3(CCN(C[C@H](O)c4ccc5c(c4C)COC5=O)CC3)C2)ccc1S(C)(=O)=O")
7.9
>>> readout_number("Cc1c([C@@H](O)CN2CCC3(CC2)CCN(c2ccc(C#N)nc2)C3)ccc2c1COC2=O")
1.2

* * *

# TEST TARGET: ATP-sensitive inward rectifier potassium channel 1 (Rattus norvegicus)
# Sequence (P35560 whole entry): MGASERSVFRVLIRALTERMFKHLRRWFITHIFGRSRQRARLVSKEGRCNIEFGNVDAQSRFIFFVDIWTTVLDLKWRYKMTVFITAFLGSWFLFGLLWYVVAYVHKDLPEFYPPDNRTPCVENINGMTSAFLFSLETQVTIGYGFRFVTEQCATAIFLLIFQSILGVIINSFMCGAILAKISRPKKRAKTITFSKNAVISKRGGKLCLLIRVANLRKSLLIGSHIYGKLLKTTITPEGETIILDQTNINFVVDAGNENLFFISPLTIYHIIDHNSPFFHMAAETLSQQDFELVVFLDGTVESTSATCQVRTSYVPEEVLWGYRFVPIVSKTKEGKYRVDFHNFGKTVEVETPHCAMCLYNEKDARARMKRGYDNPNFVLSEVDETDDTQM
# PROTOCOL SUMMARY: Inhibition of rat ROMK expressed in HEK293 cells after 30 mins by thallium flux assay
pIC50: −log10 of the molar value.
READOUT KIND: pIC50

>>> readout_number("Cc1c([C@@H](O)CN2CCC3(CC2)CCN(c2ccc(S(C)(=O)=O)cn2)C3)ccc2c1COC2=O")
7.22
>>> readout_number("Cc1c([C@@H](O)CN2CCC3(CC2)CC(=O)N(c2ccc(S(C)(=O)=O)cn2)C3)ccc2c1COC2=O")
7.40
>>> readout_number("Cc1c([C@@H](O)CN2CCC3(CC2)CCN(c2ccc(S(C)(=O)=O)nc2)C3)ccc2c1COC2=O")
6.62
>>> readout_number("Cc1c([C@@H](O)CN2CCC3(CC2)CC(=O)N(c2cnc(S(C)(=O)=O)cn2)C3)ccc2c1COC2=O")
7.22
>>> readout_number("Cc1c([C@@H](O)CN2CCC3(CC2)CCN(c2cnc(S(C)(=O)=O)cn2)C3)ccc2c1COC2=O")
7.40
